Every entry's value here was drawn from ChEMBL document CHEMBL1156322.

System: Radical scavenging activity
Assay: Antioxidant activity assessed as DPPH free radical scavenging activity at 1 uM after 6 mins by spectrophotometry
Type: functional
Calls of active or inactive are those of the source. No cut-off for these calls is given here.
measurement.label: Activity

// worked examples, Activity included
COc1cc(OC)c(C(=O)c2ccccc2Br)c(O)c1CN1CCCC1 ... inactive
COc1cc(OC)c(C(=O)c2ccccc2Br)c(O)c1CN1CCN(C)CC1 ... 4.5%
COc1cc(OC)c(C(=O)c2cccc(F)c2)c(O)c1CN1CCCC1 ... 2.11%
COc1cc(O)c(C(=O)c2ccccc2Br)c(OC)c1 ... inactive
COc1cc(OC)c(C(=O)c2cccc(Cl)c2)c(O)c1CN1CCOCC1 ... 9.45%

Query: Supply recorded Activity for COc1cc(OC)c(C(=O)c2cccc(Cl)c2)c(O)c1CN1CCCC1 here.
Reply: 1.82%

Query: Supply recorded Activity for COc1cc(OC)c(C(=O)c2cccc(F)c2)c(O)c1CN1CCCCC1 here.
Reply: 9.25%

Query: Supply recorded Activity for COc1cc(OC)c(C(=O)c2cccc(Cl)c2)c(O)c1CN1CCCCC1 here.
Reply: 14.8%

Query: Supply recorded Activity for O=C(O)c1cc(O)c(O)c(O)c1 here.
Reply: 19.4%

Query: Supply recorded Activity for COc1cc(OC)c(C(=O)c2cccc(F)c2)c(O)c1CN1CCN(C)CC1 here.
Reply: 18.5%

Query: Supply recorded Activity for COc1cc(OC)c(C(=O)c2ccccc2Br)c(O)c1CN1CCCCC1 here.
Reply: 17.7%
